B1: FAM50A (parent)
chain: KALEILRKDFSELRSAGVEQLMYI

# Variants of: B1
# test-summary: protein stability index of a GFP-peptide fusion (GPS, HEK-293T) (PSI 1-6); higher = more stable;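 further: lentivirally expressed fusions sorted by FACS into six bins by GFP to DsRed ratio, PSI derived from sequencing read proportions per bin multiplied by bin number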
# condition-context: c terminus: a fixed tail appended
Would you kindly list protein stability index for each of these variants?
Please respond with just the number, no unit label.

Ask: Name the recorded protein stability index of the item KALEDLRKDFSELRSAGVEQLMYI [I5D] in your answer.
Result: 1.55

Ask: Name the recorded protein stability index of the item KALEIDRKDFSELRSAGVEQLMYI [L6D] in your answer.
Result: 2

Ask: Name the recorded protein stability index of the item KALEILRKDFSELRSAGVEYLMYI [Q20Y] in your answer.
Result: 2.58

Ask: Name the recorded protein stability index of the item KPLEILRKDFSELRSAGVEQLMYI [A2P] in your answer.
Result: 1.95

Ask: Name the recorded protein stability index of the item KALEILRKDFSELRFAGVEQLMYI [S15F] in your answer.
Result: 2.51

Ask: Name the recorded protein stability index of the item KALEIFRKDFSELRSAGVEQLMYI [L6F] in your answer.
Result: 2.24

Ask: Name the recorded protein stability index of the item KALECLRKDFSELRSAGVEQLMYI [I5C] in your answer.
Result: 2.39

Ask: Name the recorded protein stability index of the item KALEILRKDFSELRSAHVEQLMYI [G17H] in your answer.
Result: 1.88

Ask: Name the recorded protein stability index of the item KALEILRKDFSALRSAGVEQLMYI [E12A] in your answer.
Result: 2.97

Ask: Name the recorded protein stability index of the item KALEILRKDFSELRSAGVEQLMYC [I24C] in your answer.
Result: 1.98

Ask: Name the recorded protein stability index of the item KALEILRKDFSELRSAGVWQLMYI [E19W] in your answer.
Result: 1.95

Ask: Name the recorded protein stability index of the item KALEILRKDFSELRSAAVEQLMYI [G17A] in your answer.
Result: 4.16

Ask: Name the recorded protein stability index of the item KALEILRKDMSELRSAGVEQLMYI [F10M] in your answer.
Result: 2.52

Ask: Name the recorded protein stability index of the item YALEILRKDFSELRSAGVEQLMYI [K1Y] in your answer.
Result: 3.42

Ask: Name the recorded protein stability index of the item KNLEILRKDFSELRSAGVEQLMYI [A2N] in your answer.
Result: 1.04

Ask: Name the recorded protein stability index of the item KALEILRKDFSELRSIGVEQLMYI [A16I] in your answer.
Result: 2.76

Ask: Name the recorded protein stability index of the item KALEILRKQFSELRSAGVEQLMYI [D9Q] in your answer.
Result: 1.2
